molecular target: human VR1 (Homo sapiens); construct: expressed in transfected cells; host or cells: HEK293; experiment: Human VR1 [3H] RTX binding assay; settings: 3H-RTX binding; compound at 1 μM
Sequence (Q8NER1 whole entry): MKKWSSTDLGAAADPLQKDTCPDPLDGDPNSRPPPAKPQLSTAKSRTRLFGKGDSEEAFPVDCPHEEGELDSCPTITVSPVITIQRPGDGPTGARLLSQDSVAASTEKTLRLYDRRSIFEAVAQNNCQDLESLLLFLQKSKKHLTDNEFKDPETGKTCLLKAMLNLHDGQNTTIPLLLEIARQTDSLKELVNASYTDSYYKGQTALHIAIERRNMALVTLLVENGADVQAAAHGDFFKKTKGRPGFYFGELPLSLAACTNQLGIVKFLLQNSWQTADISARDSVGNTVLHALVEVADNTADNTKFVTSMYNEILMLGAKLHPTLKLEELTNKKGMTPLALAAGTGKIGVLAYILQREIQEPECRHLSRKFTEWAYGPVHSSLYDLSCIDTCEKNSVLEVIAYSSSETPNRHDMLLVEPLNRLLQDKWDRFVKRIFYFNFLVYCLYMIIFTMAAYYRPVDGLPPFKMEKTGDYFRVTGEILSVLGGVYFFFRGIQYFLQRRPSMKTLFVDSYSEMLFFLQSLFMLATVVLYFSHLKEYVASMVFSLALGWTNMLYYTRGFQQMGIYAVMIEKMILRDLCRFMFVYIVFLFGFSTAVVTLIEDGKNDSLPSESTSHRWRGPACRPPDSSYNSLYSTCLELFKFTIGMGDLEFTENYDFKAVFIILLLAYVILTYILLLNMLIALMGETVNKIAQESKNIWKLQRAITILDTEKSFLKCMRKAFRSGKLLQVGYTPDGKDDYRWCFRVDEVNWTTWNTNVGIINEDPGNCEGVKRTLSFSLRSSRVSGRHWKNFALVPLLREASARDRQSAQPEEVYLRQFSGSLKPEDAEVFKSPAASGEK
QUANTITY_MEASURED: inhibition at 1 µM (%)
Report only the number, with the unit % understood.

Form: compound = CC1CCCN(c2ccc(C(=O)Nc3cnc4ccccc4c3)cc2)C1 (stereo not drawn) ; inhibition at 1 µM = 78

Form: compound = `CCCCCNc1ccc(C(=O)Nc2cnc3ccccc3c2)cc1C` ; inhibition at 1 µM = 81

Form: compound = `CCCCCN(Cc1ccccc1)c1ccc(C(=O)Nc2cnc3ccccc3c2)cc1` ; inhibition at 1 µM = 67

Form: compound = `CCCCCN(C)c1ccccc1C(=O)Nc1cnc2ccccc2c1` ; inhibition at 1 µM = 21

Form: compound = `CCCCCN1CCCc2cc(C(=O)Nc3cnc4ccccc4c3)ccc21` ; inhibition at 1 µM = 93

Form: compound = `O=C(Nc1cnc2ccccc2c1)c1ccc(N2CCOCC2)cc1` ; inhibition at 1 µM = 4
